# target.system: DPPI (Homo sapiens)
# Sequence (P53634 231-394 limits assumed): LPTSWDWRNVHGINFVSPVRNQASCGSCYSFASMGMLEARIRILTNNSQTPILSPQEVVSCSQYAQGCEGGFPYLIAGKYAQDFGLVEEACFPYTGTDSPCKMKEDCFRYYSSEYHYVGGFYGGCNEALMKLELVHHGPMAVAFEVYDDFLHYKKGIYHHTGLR
# Sequence (P53634 25-134 limits assumed): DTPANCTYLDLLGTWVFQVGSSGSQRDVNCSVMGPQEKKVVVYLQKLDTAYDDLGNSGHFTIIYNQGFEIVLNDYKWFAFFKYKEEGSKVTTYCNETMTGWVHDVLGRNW
# Sequence (P53634 395-463 limits assumed): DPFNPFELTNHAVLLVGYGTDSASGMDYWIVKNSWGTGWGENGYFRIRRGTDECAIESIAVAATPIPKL
# assay.procedure: Substrate specificity of human DPPI: hydrolysis of synthetic peptide substrates
# Type: biochemical
# Design: Human DPPI is now established to constitute a 200,000 Da glycoprotein with 24,000 Da subunits; from tissue; host or cells: human cadaveric spleen; unit not given here
# condition.description: substrate concentration 100 μM
*1 amine or outer side, *2 acyl side, *3 side chain or, on linkers, in order; H or OH if unused. Where a SMILES comes first, the peptide text is derived from it. The star is where a group is joined. pNA = O=[N+]([O-])c1ccc(N*)cc1; Suc = O=C(CCC(=O)[*:2])[*:1]; βNA = c1ccc2cc(N*)ccc2c1
measurement.name: hydrolysis of substrate peptide by human DPPI
Reply: number alone, nothing else.

INSERT INTO assay_data (compound, readout_value) VALUES
  ('C[C@H](N)C(=O)N[C@@H](C)C(=O)Nc1ccc([N+](=O)[O-])cc1 [Ala-Ala-pNA] (H-Ala-Ala-pNA)', 380),
  ('C[C@H](NC(=O)CCC(=O)O)C(=O)N[C@@H](C)C(=O)N1CCC[C@H]1C(=O)N[C@@H](Cc1ccccc1)C(=O)Nc1ccc([N+](=O)[O-])cc1 [Suc-Ala-Ala-Pro-Phe-pNA] (Suc-AAPF-pNA)', 0),
  ('NCC(=O)Nc1ccc2ccccc2c1', 0),
  ('C[C@H](NC(=O)CCC(=O)O)C(=O)N[C@@H](C)C(=O)N[C@@H](C)C(=O)Nc1ccc([N+](=O)[O-])cc1', 0),
  ('C[C@H](N)C(=O)Nc1ccc2ccccc2c1', 0);

From here, focus on the item given below.
Task: Specify hydrolysis of substrate peptide by human DPPI for C[C@H](NC(=O)[C@@H](N)CC(=O)O)C(=O)Nc1ccc2ccccc2c1 [Asp-Ala-βNA] (H-Asp-Ala-βNA) and stop.
Output: 250
